Listed here: items and their measured IC50.
Target: Rho-associated protein kinase 2 (Homo sapiens, UniProt O75116)
Sequence (O75116 whole entry): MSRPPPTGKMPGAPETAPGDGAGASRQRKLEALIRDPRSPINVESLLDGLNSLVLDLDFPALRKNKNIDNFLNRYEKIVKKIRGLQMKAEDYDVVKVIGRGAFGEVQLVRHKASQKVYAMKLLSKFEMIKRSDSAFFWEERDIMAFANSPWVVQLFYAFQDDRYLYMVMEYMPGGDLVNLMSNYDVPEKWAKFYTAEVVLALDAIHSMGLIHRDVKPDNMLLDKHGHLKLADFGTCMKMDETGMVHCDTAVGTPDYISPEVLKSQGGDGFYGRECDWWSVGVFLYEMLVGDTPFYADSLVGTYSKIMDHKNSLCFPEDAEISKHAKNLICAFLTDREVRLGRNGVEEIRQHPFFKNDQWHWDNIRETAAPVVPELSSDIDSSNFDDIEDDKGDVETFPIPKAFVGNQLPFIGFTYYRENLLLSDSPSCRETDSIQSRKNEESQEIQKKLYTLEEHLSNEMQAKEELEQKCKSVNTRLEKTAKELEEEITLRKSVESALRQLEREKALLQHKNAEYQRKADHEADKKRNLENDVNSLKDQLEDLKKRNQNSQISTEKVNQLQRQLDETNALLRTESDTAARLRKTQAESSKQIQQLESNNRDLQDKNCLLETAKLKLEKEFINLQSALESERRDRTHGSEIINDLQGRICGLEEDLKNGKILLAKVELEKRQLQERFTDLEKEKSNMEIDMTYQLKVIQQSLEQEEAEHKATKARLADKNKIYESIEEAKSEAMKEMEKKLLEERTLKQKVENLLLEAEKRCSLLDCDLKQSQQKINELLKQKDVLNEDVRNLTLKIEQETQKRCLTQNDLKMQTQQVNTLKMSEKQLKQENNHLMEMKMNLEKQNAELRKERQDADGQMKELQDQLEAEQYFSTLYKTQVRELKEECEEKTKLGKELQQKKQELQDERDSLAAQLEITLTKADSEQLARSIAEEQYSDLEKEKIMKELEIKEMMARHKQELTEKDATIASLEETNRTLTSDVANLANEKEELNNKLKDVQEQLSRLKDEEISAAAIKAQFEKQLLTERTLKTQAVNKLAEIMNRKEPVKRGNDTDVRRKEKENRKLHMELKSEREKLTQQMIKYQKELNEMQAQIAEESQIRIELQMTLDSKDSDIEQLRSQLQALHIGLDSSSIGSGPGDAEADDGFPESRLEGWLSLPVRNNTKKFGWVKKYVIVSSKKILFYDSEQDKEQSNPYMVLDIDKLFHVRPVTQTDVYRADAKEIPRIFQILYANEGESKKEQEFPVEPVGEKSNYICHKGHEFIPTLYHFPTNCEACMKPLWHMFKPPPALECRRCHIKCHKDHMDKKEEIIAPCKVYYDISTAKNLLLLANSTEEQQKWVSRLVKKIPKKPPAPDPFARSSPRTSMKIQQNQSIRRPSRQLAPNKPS
Test: Inhibition of human N-terminal GST-tagged ROCK2 expressed in baculovirus-infected insect cells using long S6 kinase peptide as substrate by radiometric assay in presence of [32P]ATP
Observed Property: IC50

1. NCc1ccc(C(=O)Nc2ccncc2F)cc1-c1cccc(C(=O)Nc2ccc(CC(=O)OC3CCCC3)cc2)c1 :: < 1 nM
2. COC(=O)c1ccc(F)c(C(=O)Nc2cccc(-c3cc(C(=O)Nc4ccncc4F)ccc3CN)c2)c1 :: < 1 nM
3. COC(=O)c1ccc(C(=O)Nc2cccc(-c3cc(C(=O)Nc4ccncc4F)ccc3CN)c2)cc1 :: < 1 nM
4. NCc1ccc(C(=O)Nc2ccncc2F)cc1-c1cccc(C(=O)Nc2ccc(CC(=O)O)cc2)c1 :: 1.8 nM

---

Test: Half life in NewZealand white rabbit plasma by LC-MS/MS analysis
Format: ADME, cell-free, Oryctolagus cuniculus
Conditions: New Zealand white
Observed Property: half-life

1. COC(=O)c1ccc(NC(=O)c2cccc(-c3cc(C(=O)Nc4ccncc4F)ccc3CN)c2)cc1 :: > 2 h

---

pIC50: −log10 of the molar value.
Measurement record for Rho-associated protein kinase 1 (Homo sapiens, UniProt Q13464); quantity recorded: pIC50.
Observed Property: pIC50

1) COC(=O)c1ccc(NC(=O)c2cccc(-c3cc(C(=O)Nc4ccncc4F)ccc3CN)c2)cc1 :: > 9.00
2) COC(=O)c1cccc(NC(=O)c2cccc(-c3cc(C(=O)Nc4ccncc4F)ccc3CN)c2)c1 :: > 9.00
3) COC(=O)Cc1ccc(NC(=O)c2cccc(-c3cc(C(=O)Nc4ccncc4F)ccc3CN)c2)cc1 :: > 9.00

---

Experiment: Half life in human hepatocytes by LC-PDA-MSA analysis
Format: ADME, cell-based, Hepatocyte
Observed Property: half-life (min)

1) COC(=O)c1ccc(NC(=O)c2cccc(-c3cc(C(=O)Nc4ccncc4F)ccc3CN)c2)cc1 :: 12

---

Assay: Cmax in NewZealand white rabbit plasma at 0.1 mg/kg, iv after 1 min by LC-MS/MS analysis
Format: ADME, organism-based, Oryctolagus cuniculus
Set-up: dose 0.1 mg/kg, route intravenous
Conditions: New Zealand white
Observed Property: Cmax

1. COC(=O)c1ccc(NC(=O)c2cccc(-c3cc(C(=O)Nc4ccncc4F)ccc3CN)c2)cc1 :: 803 nM

---

Experiment: Stability in human hepatocytes assessed as compound remaining after 120 mins by LC-MS/MS analysis
Format: ADME, cell-based, Hepatocyte
Details: read-out: Stability
Observed Property: remaining at 2 h

1. COC(=O)c1ccc(NC(=O)c2cccc(-c3cc(C(=O)Nc4ccncc4F)ccc3CN)c2)cc1 :: 2.4%

---

Experiment: Half life in human plasma by LC-MS/MS analysis
Format: ADME, cell-free
Observed Property: half-life

1) COC(=O)c1ccc(NC(=O)c2cccc(-c3cc(C(=O)Nc4ccncc4F)ccc3CN)c2)cc1 :: > 120 min
2) C[C@@H](N)[C@H]1CC[C@H](C(=O)Nc2ccncc2)CC1 :: > 120 min
3) CC[C@H](C)OC(=O)Cc1ccc(NC(=O)c2cccc(-c3cc(C(=O)Nc4ccncc4F)ccc3CN)c2)cc1 :: 17 min
4) NCc1ccc(C(=O)Nc2ccncc2F)cc1-c1cccc(C(=O)Nc2cccc(C(=O)O)c2)c1 :: > 120 min
5) NCc1ccc(C(=O)Nc2ccncc2F)cc1-c1cccc(C(=O)Nc2ccc(CC(=O)OC3CCCOC3)cc2)c1 (stereo not drawn) :: 6 min
6) CC[C@@H](C)OC(=O)Cc1ccc(NC(=O)c2cccc(-c3cc(C(=O)Nc4ccncc4F)ccc3CN)c2)cc1 :: > 120 min
7) COC(=O)c1ccc(F)c(NC(=O)c2cccc(-c3cc(C(=O)Nc4ccncc4F)ccc3CN)c2)c1 :: 18 min
8) COCCOC(=O)c1ccc(F)c(C(=O)Nc2cccc(-c3cc(C(=O)Nc4ccncc4F)ccc3CN)c2)c1 :: < 5 min
